- ASSAYED_TARGET: T1, 4H2592-AA
- T1 chain: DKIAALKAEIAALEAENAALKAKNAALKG
- RUN_DESCRIPTION: two-hybrid library CCmax;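 note: natural log of median RNA to DNA barcode read ratio; higher means stronger binding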
- APPLIED_CONDITIONS: mean of both orientations
MEASURED_PARAMETER: interaction score
Please reply with the value in numeric form only.

>  <BINDER>
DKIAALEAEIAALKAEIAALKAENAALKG [4H2124-AA]

>  <MEASURED_PARAMETER>
interaction score

>  <VALUE>
-0.666

$$$$
>  <BINDER>
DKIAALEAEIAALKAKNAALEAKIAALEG [4H2165-AA]

>  <MEASURED_PARAMETER>
interaction score

>  <VALUE>
-0.973

$$$$
>  <BINDER>
DENAALKAEIAALKAKIAALEAKNAALEG [4H1639-AA]

>  <MEASURED_PARAMETER>
interaction score

>  <VALUE>
-1.85

$$$$

Pending binder:
### Prompt Record request: interaction score value, item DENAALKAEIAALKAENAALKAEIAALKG [4H1626-AA]
### Response -1.24
